# System: Plasmodium falciparum
# test.protocol: Antimalarial activity after 24 hrs against chloroquine-resistant Plasmodium falciparum W2 infected type A+ human erythrocytes by [3H]hypoxanthine uptake
# Type: functional
# recorded.conditions: read-out: ED50 (the source's name)
readout.label: EC50 (mg/L)
Expressed in mg/L, but write only the number.

Would you please look over these solved cases?
{"compound": "COc1ccc2cc1Oc1ccc(cc1)C[C@H]1c3c(cc(OC)c(O)c3Oc3cc4c(cc3OC)CCN(C)[C@@H]4C2)CCN1C", "EC50 / mg/L": 0.288}
{"compound": "CCN(CC)CCCC(C)Nc1ccnc2cc(Cl)ccc12 (configuration not stated)", "EC50 / mg/L": 0.0317}
{"compound": "COc1ccc2cc1Oc1ccc(cc1)C[C@H]1c3c(cc(OC)c4c3Oc3cc5c(cc3O4)CCN=C5C2)CCN1C", "EC50 / mg/L": 0.256}
{"compound": "COc1ccc2cc1Oc1ccc(cc1)C[C@H]1c3c(cc(O)c(OC)c3Oc3cc4c(cc3OC)CCN(C)[C@@H]4C2)CCN1C", "EC50 / mg/L": 0.31}

-- ask // query EC50 value for entry COc1ccc2cc1Oc1ccc(cc1)C[C@H]1c3c(cc(OC)c(OC)c3Oc3cc4c(cc3OC)CCN(C)[C@@H]4C2)CCN1C
-- reply 0.216

-- ask Next: C=C[C@H]1CN2CC[C@H]1C[C@H]2[C@H](O)c1ccnc2ccc(OC)cc12
-- reply 0.0308

-- ask Check COc1ccc2cc1Oc1ccc(cc1)C[C@H]1c3cc(c(OC)cc3CCN1C)Oc1c(OC)c(OC)cc3c1[C@@H](C2)NCC3 too.
-- reply 0.0453

---

Parameter: selectivity ratio. Scope: all listed entries.
# test.protocol: Selectivity index, ratio of ED50 for human MEL2 cells to ED50 for chloroquine-resistant Plasmodium falciparum W2
# Type: toxicity, cell-based
# recorded.conditions: read-out: Ratio ED50
Lab note: record just the number, no unit beside it.

Past entries and their recorded results:
{"smiles.input": "COc1ccc2cc1Oc1ccc(cc1)C[C@H]1c3c(cc(OC)c(O)c3Oc3cc4c(cc3OC)CCN[C@@H]4C2)CCN1C", "readout.label": "selectivity ratio", "value.observed": 60}
{"smiles.input": "COc1ccc2cc1Oc1ccc(cc1)C[C@H]1c3cc(c(OC)cc3CCN1C)Oc1c(OC)c(OC)cc3c1[C@@H](C2)N(C)CC3", "readout.label": "selectivity ratio", "value.observed": 357}
{"smiles.input": "COc1ccc2cc1Oc1ccc(cc1)C[C@H]1c3c(cc(OC)c(O)c3Oc3cc4c(cc3OC)CCN(C)[C@@H]4C2)CCN1C", "readout.label": "selectivity ratio", "value.observed": 31}
{"smiles.input": "COc1ccc2cc1Oc1ccc(cc1)C[C@H]1c3c(cc(OC)c4c3Oc3cc5c(cc3O4)CCN=C5C2)CCN1C", "readout.label": "selectivity ratio", "value.observed": 39}

-- ask Would you mind telling me what selectivity ratio value was observed for COc1ccc2cc1Oc1ccc(cc1)C[C@H]1c3c(cc(OC)c(OC)c3Oc3cc4c(cc3OC)CCN[C@@H]4C2)CCN1C ?
-- reply 155

-- ask // repeat for COc1ccc2cc1Oc1ccc(cc1)C[C@H]1c3c(cc(OC)c4c3Oc3cc5c(cc3O4)CCN(C)[C@@H]5C2)CCN1C and report
-- reply 34

---

# test.protocol: Cytotoxicity against human LUC1 cells after 3 days by sulforhodamine B assay
# Format: cell-based
# recorded.conditions: read-out: ED50
CC50 at 72 h under 9 µg/mL gets Met, anything at or over 9 µg/mL gets Not met.

Past entries and their recorded results:
{"molecule": "COc1ccc2cc1Oc1ccc(cc1)C[C@H]1c3cc(c(OC)cc3CCN1C)Oc1c(O)c(OC)cc3c1[C@@H](C2)NCC3", "group": "Met"}
{"molecule": "CCN(CC)CCCC(C)Nc1ccnc2cc(Cl)ccc12 (stereo unspecified)", "group": "Not met"}
{"molecule": "OC(c1cc(C(F)(F)F)nc2c(C(F)(F)F)cccc12)C1CCCCN1 (stereo unspecified)", "group": "Met"}
{"molecule": "COc1ccc2cc1Oc1ccc(cc1)C[C@H]1c3cc(c(OC)cc3CCN1C)Oc1c(OC)c(OC)cc3c1[C@@H](C2)N(C)CC3", "group": "Not met"}
{"molecule": "COc1ccc2cc1Oc1ccc(cc1)C[C@H]1c3c(cc(O)c(OC)c3Oc3cc4c(cc3OC)CCN(C)[C@@H]4C2)CCN1C", "group": "Met"}
{"molecule": "COc1ccc2cc1Oc1ccc(cc1)C[C@H]1c3c(cc4c(c3Oc3cc5c(cc3OC)CCN[C@@H]5C2)OCO4)CCN1C", "group": "Met"}

-- ask Given the entry COc1ccc2cc1Oc1ccc(cc1)C[C@H]1c3cc(c(OC)cc3CCN1C)Oc1c(OC)c(OC)cc3c1[C@@H](C2)NCC3 , would its reported CC50 at 72 h be below 9 µg/mL?
-- reply Not met

-- ask Same lookup for C=C[C@H]1CN2CC[C@H]1C[C@H]2[C@H](O)c1ccnc2ccc(OC)cc12 , please.
-- reply Not met

-- ask Also COc1ccc2cc1Oc1ccc(cc1)C[C@H]1c3cc(c(OC)cc3CCN1C)Oc1c(O)c(OC)cc3c1[C@@H](C2)N(C)CC3 ?
-- reply Not met

---

# test.protocol: Cytotoxicity against human KBV1 cells after 3 days by sulforhodamine B assay
# Assay type: cell-based, KB-V1
# recorded.conditions: read-out: ED50
# if measured CC50 at 72 h < 4 µg/mL: YES  # else: NO

For orientation, consider the following solved cases.
{"compound": "COc1ccc2cc1Oc1ccc(cc1)C[C@H]1c3c(cc(OC)c(OC)c3Oc3cc4c(cc3OC)CCN[C@@H]4C2)CCN1C", "group": "YES"}
{"compound": "COc1ccc2cc1Oc1ccc(cc1)C[C@H]1c3cc(c(OC)cc3CCN1C)Oc1c(O)c(OC)cc3c1[C@@H](C2)N(C)CC3", "group": "YES"}
{"compound": "CCN(CC)CCCC(C)Nc1ccnc2cc(Cl)ccc12 (configuration not stated) [CHLOROQUINE]", "group": "NO"}
{"compound": "C=C[C@H]1CN2CC[C@H]1C[C@H]2[C@H](O)c1ccnc2ccc(OC)cc12 [QUININE]", "group": "NO"}
{"compound": "COc1ccc2cc1Oc1ccc(cc1)C[C@H]1c3c(cc4c(c3Oc3cc5c(cc3OC)CCN(C)[C@@H]5C2)OCO4)CCN1C [CEPHARANTHINE]", "group": "YES"}

-- ask Strictly below 4 µg/mL in CC50 at 72 h? COc1ccc2cc1Oc1ccc(cc1)C[C@H]1c3c(cc4c(c3Oc3cc5c(cc3OC)CCN[C@@H]5C2)OCO4)CCN1C
-- reply YES

-- ask Repeat with COc1ccc2cc1Oc1ccc(cc1)C[C@H]1c3cc(c(OC)cc3CCN1C)Oc1c(OC)c(OC)cc3c1[C@@H](C2)NCC3
-- reply YES

---

Below, each entry is listed with its recorded CC50 at 72 h.
# test.protocol: Cytotoxicity against human KBV1 cells after 3 days by sulforhodamine B assay
# Type: cell-based, KB-V1
# recorded.conditions: read-out: ED50
Express the result in mg/L but write the number alone.

Study these solved cases before continuing.
{"smiles.input": "COc1ccc2cc1Oc1ccc(cc1)C[C@H]1c3c(cc(OC)c(O)c3Oc3cc4c(cc3OC)CCN[C@@H]4C2)CCN1C", "value.observed": 2.2}
{"smiles.input": "COc1ccc2cc1Oc1ccc(cc1)C[C@H]1c3c(cc(OC)c4c3Oc3cc5c(cc3O4)CCN(C)[C@@H]5C2)CCN1C", "value.observed": 0.4}
{"smiles.input": "COc1ccc2cc1Oc1ccc(cc1)C[C@H]1c3c(cc(OC)c(O)c3Oc3cc4c(cc3OC)CCN(C)[C@@H]4C2)CCN1C", "value.observed": 3.1}

Consider the additional molecule presented here.
-- ask State the recorded CC50 at 72 h for this entry: COc1ccc2cc1Oc1ccc(cc1)C[C@H]1c3c(cc(OC)c4c3Oc3cc5c(cc3O4)CCN=C5C2)CCN1C
-- reply 6.8

---

# test.protocol: Selectivity index, ratio of ED50 for human KB-V1 cells to ED50 for chloroquine-sensitive Plasmodium falciparum D6
# Assay type: toxicity, cell-based
# recorded.conditions: read-out: Ratio ED50
readout.label: selectivity ratio
When you answer, write just the number.

Some entries whose results are on file:
{"compound": "COc1ccc2cc1Oc1ccc(cc1)C[C@H]1c3c(cc(OC)c4c3Oc3cc5c(cc3O4)CCN=C5C2)CCN1C", "selectivity ratio": 22}
{"compound": "COc1ccc2cc1Oc1ccc(cc1)C[C@H]1c3c(cc4c(c3Oc3cc5c(cc3OC)CCN(C)[C@@H]5C2)OCO4)CCN1C", "selectivity ratio": 6}
{"compound": "OC(c1cc(C(F)(F)F)nc2c(C(F)(F)F)cccc12)C1CCCCN1 (configuration not stated)", "selectivity ratio": 122}
{"compound": "COc1ccc2cc1Oc1ccc(cc1)C[C@H]1c3cc(c(OC)cc3CCN1C)Oc1c(O)c(OC)cc3c1[C@@H](C2)NCC3", "selectivity ratio": 118}
{"compound": "COc1ccc2cc1Oc1ccc(cc1)C[C@H]1c3c(cc(OC)c(OC)c3Oc3cc4c(cc3OC)CCN(C)[C@@H]4C2)CCN1C", "selectivity ratio": 11}
{"compound": "COc1ccc2cc1Oc1ccc(cc1)C[C@H]1c3cc(c(OC)cc3CCN1C)Oc1c(O)c(OC)cc3c1[C@@H](C2)N(C)CC3", "selectivity ratio": 31}

# next compound below
-- ask Reported selectivity ratio, compound COc1ccc2cc1Oc1ccc(cc1)C[C@H]1c3c(cc4c(c3Oc3cc5c(cc3OC)CCN[C@@H]5C2)OCO4)CCN1C : ____
-- reply 30
